Listed here: items and their measured IC50.
# MEASURED_TARGET: Human Factor D (Homo sapiens (Human), UniProt P00746)
# Sequence (P00746 26-253): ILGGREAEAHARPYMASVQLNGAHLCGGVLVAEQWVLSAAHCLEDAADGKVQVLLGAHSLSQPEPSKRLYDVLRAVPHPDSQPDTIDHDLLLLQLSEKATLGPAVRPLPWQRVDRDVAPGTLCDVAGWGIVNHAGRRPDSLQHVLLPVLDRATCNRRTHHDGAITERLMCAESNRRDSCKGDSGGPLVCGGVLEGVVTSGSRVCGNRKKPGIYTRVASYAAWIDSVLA
# METHOD_DESCRIPTION: Human Factor D assay
# Assay type: biochemical
# TEST_CONTEXT: Table 4; Factor D inhibition, substrate Z-L-Lys-SBzl
READOUT_KIND: IC50

{"COMPOUND": "CC(=O)c1nn(CC(=O)N2C[C@H](F)C[C@H]2C(=O)Nc2cccc(-c3cc(F)ccc3S(C)(=O)=O)c2F)c2ccc(-c3cnc(C)nc3)cc12", "EXPERIMENTAL_RESULT": "< 1000 nM"}
{"COMPOUND": "C/C(=N\\O)c1nn(CC(=O)N2C[C@H](F)C[C@H]2C(=O)Nc2cccc(Br)n2)c2ccc(-c3cnc(C)nc3)cc12", "EXPERIMENTAL_RESULT": "< 1000 nM"}
{"COMPOUND": "Cc1cc2ncc(-c3nc4c(s3)c(C(N)=O)nn4CC(=O)N3C[C@H](F)C[C@H]3C(=S)NC3CCC(c4cc5sccc5s4)C3)cn2n1 (stereo partly drawn)", "EXPERIMENTAL_RESULT": "> 10000 nM"}
